All values here come from patent US9513294B2.

test: Absorbance and fluorescence emission spectra (SpectraMax M2)
Assay type: physicochemical
condition.summary: MKAC compound library; absorbance maximum
measured.quantity: λmax Abs. (nm)
Quick note: give the figure in nm, leave out the unit.

Give the measured λmax Abs. (nm) of CC(=O)Nc1ccc(C2=C3C=CC(N4CCc5ccccc5C4)=[N+]3[B-](F)(F)n3c2ccc3-n2cc(CO)nn2)cc1 [MKAC66-70] .
468

Please report the recorded λmax Abs. (nm) for CC(=O)Nc1ccc(C2=C3C=CC(N4CCCC4)=[N+]3[B-](F)(F)n3c2ccc3-n2cc(CO)nn2)cc1 [MKAC215-70] .
461

Quick one: λmax Abs. (nm) of CCCc1cn(-c2ccc3n2[B-](F)(F)[N+]2=C(N4CC(C)OC(C)C4)C=CC2=C3c2ccc(NC(C)=O)cc2)nn1 (stereo not shown) [MKAC20-48] ?
467

Report λmax Abs. (nm) for CCCCCC(O)c1cn(-c2ccc3n2[B-](F)(F)[N+]2=C(NCc4cc(F)cc(F)c4)C=CC2=C3c2ccc(NC(C)=O)cc2)nn1 (stereo not shown) [MKAC412-69] please.
468

Which value of λmax Abs. (nm) has been reported for COc1ccc(OC)c(CNC2=[N+]3C(=C(c4ccc(NC(C)=O)cc4)c4ccc(-n5cc(C6CC6)nn5)n4[B-]3(F)F)C=C2)c1 [MKAC181-4] in the records?
464

Any idea what λmax Abs. (nm) was measured for CCCC(C)c1cn(-c2ccc3n2[B-](F)(F)[N+]2=C(NCc4ccccc4OCC)C=CC2=C3c2ccc(NC(C)=O)cc2)nn1 (stereo not shown) [MKAC103-3] ?
465

Look up λmax Abs. (nm): CCCC(C)c1cn(-c2ccc3n2[B-](F)(F)[N+]2=C(N4CCc5ccccc5C4)C=CC2=C3c2ccc(NC(C)=O)cc2)nn1 (stereo not shown) [MKAC66-3]
469

Using the record for CC(=O)Nc1ccc(C2=C3C=CC(N4CC(C)OC(C)C4)=[N+]3[B-](F)(F)n3c2ccc3-n2cc(CC3CCCCC3)nn2)cc1 (stereo not shown) [MKAC20-8] , report its λmax Abs. (nm).
466

Please give the measured λmax Abs. (nm) for this compound: CC(=O)Nc1ccc(C2=C3C=CC(NCc4ccccc4C)=[N+]3[B-](F)(F)n3c2ccc3-n2cc(CCc3ccccc3)nn2)cc1 [MKAC101-19]
464

I am curious: what λmax Abs. (nm) value has been reported for CC(=O)Nc1ccc(C2=C3C=CC(NCc4cc(F)cc(F)c4)=[N+]3[B-](F)(F)n3c2ccc3-n2cc(C3CC3)nn2)cc1 [MKAC412-4] ?
466

Report λmax Abs. (nm) for CC(=O)Nc1ccc(C2=C3C=CC(N(C)Cc4ccccc4)=[N+]3[B-](F)(F)n3c2ccc3-n2cc(CC3CCCCC3)nn2)cc1 [MKAC195-8] please.
466

Requested read-out: λmax Abs. (nm). Entry: CC(=O)Nc1ccc(C2=C3C=CC(N(C)Cc4ccccc4)=[N+]3[B-](F)(F)n3c2ccc3-n2cc(CO)nn2)cc1 [MKAC195-70]
464

If you can, please state the reported λmax Abs. (nm) value of CCCc1cn(-c2ccc3n2[B-](F)(F)[N+]2=C(NCc4ccccc4OCC)C=CC2=C3c2ccc(NC(C)=O)cc2)nn1 [MKAC103-48] .
466
